molecular target: apelin receptor (APJ) (Homo sapiens, UniProt P35414); test: In vitro apelin agonist activity (methods of Giddings et al., Apelin-13 as positive control); format: cell-based; settings: in vitro apelin agonist activity, methods of Giddings et al., Apelin-13 as positive control; read-out: EC50 (nM) Ave
Kindly state EC50 for each of the entries shown.
Numeric answer only, unit nM assumed.

// EC50 value for COc1cccc(OC)c1-c1cc(C(=O)N[C@H](CC(=O)Nc2nccs2)Cc2ccccc2)nn1C1CCCC1 : 203

Documented EC50 of O=C(C[C@H](CCN1CCCC(F)(F)C1)NC(=O)c1cc(-c2cnccc2C(F)(F)F)n(C2CCCC2)n1)NC1CCC1 : 23

response.value for O=C(O)C[C@H](CCN1CCC(C(F)(F)F)C1)NC(=O)c1cc(-c2ccccc2C(F)(F)F)n(C2CCCC2)n1 (stereo partly drawn) (field: EC50) = 78

EC50 for COc1cccc(F)c1-c1cc(C(=O)N[C@@H](CCN2CCCCC2)CC(=O)NC2CCC2)nn1C1CCCC1 is 90

Record summary for O=C(O)C[C@H](CCN1CCCC(F)(F)C1)NC(=O)c1cc(-c2ccc(F)cc2C(F)(F)F)n(C2CCCC2)n1 : reported EC50 = 126

What the record says about CC1(NC(=O)C[C@H](CC(=O)N2CCCCC2)NC(=O)c2cc(-c3ccccc3C(F)(F)F)n(C3CCCC3)n2)COC1 : EC50 is 8680

get_value(item= O=C(N[C@@H](CCN1CCCC(F)(F)C1)Cc1nnn[nH]1)c1cc(-c2ncccc2C(F)(F)F)n(C2CCCC2)n1 , readout=EC50) returns 27

EC50 reported for this molecule CN1CC(NC(=O)C[C@H](CCc2ccc(F)cc2)NC(=O)c2cc(-c3ccccc3C(F)(F)F)n(C3CCCC3)n2)C1 : 474

GET /value?item= O=C(C[C@H](CCN1CCCC(F)(F)C1)NC(=O)c1cc(-c2ccccc2C(F)(F)F)n(C2CCCC2)n1)NC1CCC1 &field=EC50 returns 10.9

// recorded EC50 for COc1cccc(OC)c1-c1cc(C(=O)N[C@@H](CCCC2CCCCC2)CC(=O)O)nn1CC(C)C : 2590

Sample CC(C)c1ccccc1-c1cc(C(=O)N[C@@H](CCN2CCCCC2)CC(=O)NC2CCC2)nn1C1CCCC1 ; EC50 observed: 140

Documented EC50 of O=C(C[C@H](CCN1CCCC(F)(F)C1)NC(=O)c1cc(-c2ncccc2C(F)(F)F)n(C2CCCC2)n1)NC1CCC1 : 0.86

Record CC(C[C@@H](CC(=O)NC1CCC1)NC(=O)c1cc(-c2ccccc2C(F)(F)F)n(C2CCCC2)n1)N1CCC(F)(F)C1 (stereo partly drawn) . Reported EC50: 299

In plain terms, Cc1cnn(CC[C@@H](CC(=O)N(C)c2nccs2)NC(=O)c2cc(-c3ccccc3C(F)(F)F)n(C3CCCC3)n2)c1 has a documented EC50 of 79

According to the records, this molecule CC(F)(F)c1ccccc1-c1cc(C(=O)N[C@@H](CCN2CC(F)(F)C2)CC(=O)O)nn1C1CCCC1 displays EC50 of 171

GET /value?item= COc1cccc(OC)c1-c1cc(C(=O)N[C@@H](/C=C/c2ccc(F)cc2)CC(=O)NC2CCC2)nn1C1CCCC1 &field=EC50 returns 292

The value of EC50 measured for the molecule O=C(O)C[C@H](CCN1CCCC(F)(F)C1)NC(=O)c1cc(-c2cccnc2Cl)n(C2CCCC2)n1 turned out to be 1670

Reported EC50 for O=C(N[C@@H](CCN1CCCC(F)(F)C1)Cc1nnc[nH]1)c1cc(-c2ccccc2Cl)n(C2CCCC2)n1 was 30

In plain terms, O=C(O)C[C@H](CCN1CCOCC1)NC(=O)c1cc(-c2ccccc2C(F)(F)F)n(C2CCCC2)n1 has a documented EC50 of 931

Recorded result, Cc1cccc(C)c1-c1cc(C(=O)N[C@@H](CCN2CCCCC2)CC(=O)NC2CCC2)nn1C1CCCC1 , EC50: 3840

EC50 recorded for this molecule, C[C@@H](c1nnn[nH]1)[C@H](CCN1CC2C(C1)C2(F)F)NC(=O)c1cc(-c2ccccc2C(F)(F)F)n(C2CCCC2)n1 (stereo partly drawn) , is 14

Sample CC(C(=O)O)[C@H](CCN1CC2C(C1)C2(F)F)NC(=O)c1cc(-c2ccccc2C(F)(F)F)n(C2CCCC2)n1 (stereo partly drawn) ; EC50 observed: 13

So, O=C(O)C[C@H](CCN1CC(C(F)(F)F)C1)NC(=O)c1cc(-c2ccccc2C(F)(F)F)n(C2CCCC2)n1 ? Its EC50 was 128

EC50 for O=C(C[C@H](CCN1CCCCC1)NC(=O)c1cc(-c2ccccc2C(F)(F)F)n(C2CCCC2)n1)NC1CC(F)(F)C1 is 45

In plain terms, O=C(CCNC(=O)c1cc(-c2ccccc2C(F)(F)F)n(C2CCCC2)n1)Nc1nccs1 has a documented EC50 of 12700

====

I'd be grateful if you could share measured EC50 for these entries.
target: UniProt:P35414; experiment: In vitro apelin agonist activity (methods of Giddings et al., Apelin-13 as positive control); assay type: cell-based; settings: in vitro apelin agonist activity, methods of Giddings et al., Apelin-13 as positive control; read-out: EC50 (nM) Ave
Express the result in nM but write the number alone.

GET /value?item= O=C(N[C@@H](CC(=O)N1CCCC(F)(F)C1)CS(=O)(=O)NC1CCC1)c1cc(-c2ccccc2C(F)(F)F)n(C2CCCC2)n1 &field=EC50 returns 1060

The compound identified as Cc1nnc(C[C@H](CCN2CCCC(F)(F)C2)NC(=O)c2cc(-c3ccccc3Cl)n(C3CCCC3)n2)[nH]1 registered its EC50 at 261

Input C[C@H](C(=O)O)[C@H](CCN1CCCC(F)(F)C1)NC(=O)c1cc(-c2ccccc2C(F)(F)F)n(C2CCCC2)n1 . Output EC50: 88

====

Could you please report measured log10 of EC50 for the items listed next?
Target: apelin receptor (APJ) (Homo sapiens, UniProt P35414)
Assay: In vitro apelin agonist activity (methods of Giddings et al., Apelin-13 as positive control)
Assay type: cell-based
Conditions: in vitro apelin agonist activity, methods of Giddings et al., Apelin-13 as positive control; read-out: EC50 (nM) Ave
Description: Characterization of the Apelin Agonist Activity of the Compounds 1:39-47, the contents of which are hereby incorporated by reference in its entirety. Using the methods described in Giddings et al. and Apelin-13 as a positive control.
Log10 applied to EC50; unit prior to transform: nM.

The molecule identified as O=C(O)C[C@H](CCN1CC2C(C1)C2(F)F)NC(=O)c1cc(-c2ccccc2C(F)(F)F)n(C2CCCC2)n1 (some centres unmarked) registered its log10 of EC50 at 1.66

Noted for O=C(O)C[C@H](CCN1CCCC(F)(F)C1)NC(=O)c1cc(-c2ccccc2C(F)(F)F)n(C2CCC2)n1 : its log10 of EC50 reads 2.22

Given item C[C@]1(F)CCCN(CC[C@@H](CC(=O)O)NC(=O)c2cc(-c3ccccc3C(F)(F)F)n(C3CCCC3)n2)C1 , the value recorded as its log10 of EC50 is 1.61

According to the records, this molecule O=C(O)C[C@H](CC(=O)N1CCCC(F)(F)C1)NC(=O)c1cc(-c2ccccc2C(F)(F)F)n(C2CCCC2)n1 displays log10 of EC50 of 3.03

# log10 of EC50 of COc1cccc(OC)c1-c1cc(C(=O)N[C@@H](CCc2ccccc2)C(=O)NCc2nccs2)nn1C1CCCC1 = 2.60

Lab note: measured log10 of EC50 of COc1cccc(OC)c1-c1cc(C(=O)N[C@@H](CCN2CCC(F)(F)CC2)CC(=O)NC2CCC2)nn1C1CCCC1 was 1.80

For reference, reported log10 of EC50 for CCOc1cc(F)c(-c2cc(C(=O)N[C@@H](CCN3CCCCC3)CC(=O)NC3CCC3)nn2C2CCCC2)c(F)c1 stands at 3.71

Reported log10 of EC50 for O=C(O)C[C@H](CCN1CC2(CCC2(F)F)C1)NC(=O)c1cc(-c2ccccc2C(F)(F)F)n(C2CCCC2)n1 was 2.72

log10 of EC50 measured on COc1cccc(OC)c1-c1cc(C(=O)N[C@@H](/C=C/c2cccnc2)CC(=O)NC2CCC2)nn1C1CCCC1 = 2.82

====

Target: UniProt P35414
Sequence (P35414 1-380): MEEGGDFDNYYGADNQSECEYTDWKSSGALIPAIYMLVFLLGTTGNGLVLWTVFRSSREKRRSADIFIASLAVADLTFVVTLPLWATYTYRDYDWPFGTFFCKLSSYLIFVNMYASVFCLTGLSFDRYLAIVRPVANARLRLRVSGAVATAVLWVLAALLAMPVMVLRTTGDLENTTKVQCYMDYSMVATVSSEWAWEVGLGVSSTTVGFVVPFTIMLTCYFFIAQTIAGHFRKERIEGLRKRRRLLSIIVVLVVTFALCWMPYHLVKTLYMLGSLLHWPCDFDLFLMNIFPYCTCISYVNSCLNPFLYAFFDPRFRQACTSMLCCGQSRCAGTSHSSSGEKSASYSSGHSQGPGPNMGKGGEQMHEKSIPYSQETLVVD
Assay: In vitro apelin agonist activity (methods of Giddings et al., Apelin-13 as positive control)
Format: cell-based
Settings: in vitro apelin agonist activity, methods of Giddings et al., Apelin-13 as positive control; read-out: EC50 (nM) Ave
Where a name gives a salt, the structure may show the parent alone.
Assignment: determine reported EC50 for the given compounds.
# output: bare number, implied unit nM

Value of measured EC50 for the entry CN(C(=O)C[C@H](CCN1CCCC(F)(F)C1)NC(=O)c1cc(-c2ccccc2Cl)n(C2CCCC2)n1)c1nccs1 : 84

Query COc1cccc(OC)c1-c1cc(C(=O)N[C@@H](CCc2ccccc2)CC(=O)O)nn1-c1ccc(F)cc1 yields EC50 of 2910

Consider Cc1cnn(CC[C@@H](CC(=O)NC2CCC2)NC(=O)c2cc(-c3ccccc3C(F)(F)F)n(C3CCCC3)n2)c1 . Its measured EC50 is 26

According to the records, this compound O=C(C[C@H](CCN1CCCCC1)NC(=O)c1cc(-c2ccccc2Cl)n(C2CCCC2)n1)NC1CCC1 displays EC50 of 162

Documented EC50 of O=C(O)C[C@H](CCN1CC(F)(F)C1)NC(=O)c1cc(-c2ccccc2C(F)(F)F)n(C2CCCC2)n1 : 388

According to the records, this compound O=C(O)C[C@H](CCNC1(C(F)(F)F)CCCC1)NC(=O)c1cc(-c2ccccc2C(F)(F)F)n(C2CCCC2)n1 [compound 615, trifluoroacetate] displays EC50 of 353

Consider O=C(N[C@@H](CCc1ccc(F)cc1)Cc1nnc(C(F)(F)F)o1)c1cc(-c2ccccc2C(F)(F)F)n(C2CCCC2)n1 . Its measured EC50 is 146
